Exercise: state measured pEC50 for each of the compounds provided.
measurement_target: human GPR119 (Homo sapiens)
Sequence (Q8TDV5 1-335): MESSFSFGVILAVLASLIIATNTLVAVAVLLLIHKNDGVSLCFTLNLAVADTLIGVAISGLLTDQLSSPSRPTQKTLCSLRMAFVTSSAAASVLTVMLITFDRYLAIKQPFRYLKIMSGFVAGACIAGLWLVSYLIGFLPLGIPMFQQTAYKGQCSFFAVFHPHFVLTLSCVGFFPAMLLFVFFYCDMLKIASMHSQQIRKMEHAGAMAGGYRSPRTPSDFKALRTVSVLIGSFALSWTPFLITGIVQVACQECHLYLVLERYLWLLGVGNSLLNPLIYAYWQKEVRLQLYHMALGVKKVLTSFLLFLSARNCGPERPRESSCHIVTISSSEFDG
test_description: Cyclic AMP assay in CHO-hGPR119 cells (HTRF)
condition_parameters: increase in intracellular cAMP; GPR119-transfected CHO cells
pEC50: −log10 of the molar value.

CC1(OC(=O)N2CCC(COc3cnc(N4CCC(S(C)(=O)=O)CC4)cn3)CC2)CC1 ... > 6.70
CC(C)c1noc(N2CCC(COc3ccc(N4CCN(S(C)(=O)=O)CC4)cn3)CC2)n1 ... 6.10 to 6.70
CS(=O)(=O)N1CCC(c2ccc(OCC3CCN(c4ccc(Cl)cn4)CC3)cc2)CC1 ... > 6.70

Problem: State the recorded pEC50 for this entry: CC(C)OC(=O)N1CCC(CCc2ccc(N3CCN(S(C)(=O)=O)CC3)nc2)CC1 [Example D2]
Solution: 6.10 to 6.70

---

measurement_target: human GPR119 (Homo sapiens)
Sequence (Q8TDV5 1-335): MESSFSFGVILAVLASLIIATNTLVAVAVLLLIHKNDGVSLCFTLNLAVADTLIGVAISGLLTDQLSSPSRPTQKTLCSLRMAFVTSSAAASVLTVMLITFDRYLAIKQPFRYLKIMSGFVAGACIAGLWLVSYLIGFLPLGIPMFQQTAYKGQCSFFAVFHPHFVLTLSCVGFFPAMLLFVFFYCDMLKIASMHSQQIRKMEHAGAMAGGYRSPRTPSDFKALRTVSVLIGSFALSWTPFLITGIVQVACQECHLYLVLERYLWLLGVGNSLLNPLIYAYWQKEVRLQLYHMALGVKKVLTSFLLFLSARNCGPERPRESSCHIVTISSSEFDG
test_description: Cyclic AMP assay in CHO-hGPR119 cells (HTRF)
condition_parameters: increase in intracellular cAMP; GPR119-transfected CHO cells
Method: Flp-In-CHO cells (Invitrogen, Cat.# R758-07) are maintained in Ham's F12 medium supplemented with 10% fetal bovine serum, 1% antibiotic mixture and 2 mM L-glutamine. The cells are transfected with a DNA mixture containing human GPR119 (hGPR119) or mouse GPR119 (mGPR119) in the pcDNA5/FRT vector (Invitrogen) and the pOG44 vector (Invitrogen) in a 1:9 ratio using Fugene6 (Roche), according to the manufacturer's instructions. […]
readout_label: EC50

Study these solved cases before continuing.
CC(C)c1noc(N2CCC(CCc3ncc(N4CCN(S(C)(=O)=O)CC4)s3)CC2)n1 ... < 0.2 µM
CC1(OC(=O)N2CCC(COc3cnc(N4CC(NS(C)(=O)=O)C4)cn3)CC2)CC1 ... < 0.2 µM
CC(C)OC(=O)N1CCC(COc2ccc(N3CCN(S(C)(=O)=O)CC3)nn2)CC1 ... > 0.8 µM
CC(C)(C)OC(=O)N1CCC(COc2cnc(N3CCCN(S(C)(=O)=O)CC3)cn2)CC1 ... > 0.8 µM

Dear colleague, could you send me EC50 for each of the items below? Thanks.
1. CCc1cnc(N2CCC(CCCc3nc(N4CCN(S(C)(=O)=O)CC4)no3)CC2)nc1
2. CS(=O)(=O)N1CCC(C(=O)O)(c2ccc(OCC3CCN(c4ncc(F)cn4)CC3)cc2)CC1
3. CC1(OC(=O)N2CCC(COc3cnc(N4CCN(S(=O)(=O)CCCN5CCC5)CC4=O)cn3)CC2)CC1
4. CC(C)c1nc(N2CCC(COc3ccc(C4=CCN(S(C)(=O)=O)CC4)cc3)CC2)no1

Solution:
1: < 0.2 µM; 2: 0.2 to 0.8 µM; 3: < 0.2 µM; 4: < 0.2 µM
